Target: T1, Pus7 D256A/E71A (Saccharomyces cerevisiae, UniProt Q08647 1-676, E71A;D256A)
T1 sequence: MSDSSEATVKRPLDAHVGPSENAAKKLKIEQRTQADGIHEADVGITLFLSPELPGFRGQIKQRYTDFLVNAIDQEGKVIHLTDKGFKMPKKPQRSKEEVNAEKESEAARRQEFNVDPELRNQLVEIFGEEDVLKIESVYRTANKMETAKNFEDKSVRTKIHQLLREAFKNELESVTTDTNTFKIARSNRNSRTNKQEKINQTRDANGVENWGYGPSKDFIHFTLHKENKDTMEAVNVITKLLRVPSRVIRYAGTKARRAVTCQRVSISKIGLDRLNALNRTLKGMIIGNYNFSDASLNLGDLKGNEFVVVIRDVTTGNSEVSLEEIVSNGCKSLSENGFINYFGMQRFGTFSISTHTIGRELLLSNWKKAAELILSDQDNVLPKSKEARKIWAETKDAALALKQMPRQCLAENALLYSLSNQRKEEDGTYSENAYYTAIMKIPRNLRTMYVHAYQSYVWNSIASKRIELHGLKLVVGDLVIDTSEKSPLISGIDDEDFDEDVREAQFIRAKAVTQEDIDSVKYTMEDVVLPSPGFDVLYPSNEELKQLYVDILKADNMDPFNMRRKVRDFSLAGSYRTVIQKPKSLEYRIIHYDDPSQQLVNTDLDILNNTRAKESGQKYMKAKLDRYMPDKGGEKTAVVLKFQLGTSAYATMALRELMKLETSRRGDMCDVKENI
Assay: EMSA
pKd: −log10 of the molar value.
measured.endpoint: pKd

1. CDC8 (cdc8-FL, 61 nt) (ssRNA) RNA: GUCAAUCACGAUUGUAGACGUUACUAAUAAGGGCAUUCAGGAAGUUGAAGCGCUUAUUUGG: 6.68
